Data origin: PubChem BioAssay AID1919015

Provide the reported viability, T/C of each item.
system: OVCAR-5 complex spheroids with HUVEC/MSC, viability, % test/control; test: Anticancer human tumor OVCAR-5 cell line growth inhibition [AhR]; conditions: second compound 10 µM; first compound 10 µM; stronger effect = lower value;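 further: spheroids exposed to compounds for 7 days; 100% = DMSO vehicle control wells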
Give bare numbers, in %.

Give measured viability, T/C for every item shown.
1. CC1COCCN1c1cc(C2(S(C)(=N)=O)CC2)nc(-c2ccnc3[nH]ccc23)n1 (stereo not drawn) + Cc1ccccc1N=Nc1ccc(NC(=O)c2ccnn2C)c(C)c1
2. CC1(C)CCC(CN2CCN(c3ccc(C(=O)NS(=O)(=O)c4ccc(NCC5CCOCC5)c([N+](=O)[O-])c4)c(Oc4cnc5[nH]ccc5c4)c3)CC2)=C(c2ccc(Cl)cc2)C1 + Cc1ccccc1N=Nc1ccc(NC(=O)c2ccnn2C)c(C)c1
3. CC(C)c1c(-c2ccccc2)nc2c(C#N)c[nH]n2c1=O + Cc1ccccc1N=Nc1ccc(NC(=O)c2ccnn2C)c(C)c1

Solution:
[50.8, 57.3, 104]
